- Tested on: Species A Rotavirus (NCDV)
- SETTINGS: Species A Rotavirus (NCDV); MA104 cells
pIC50: −log10 of the molar value.
This listing pairs compounds with measured pIC50.
EXPERIMENTAL_READOUT: pIC50

CN(C)C(=O)Nc1cccc(-c2ccc(N(C)C)cc2)c1 : 5.17
COc1nn(-c2ccc(NC(=O)OCc3ccccc3)c(C)c2)c(=O)o1 : 4.68

---

- System: Vero E6
- ASSAY: Cytotoxicity, MTT assay, Vero E6
- Format: cell-based, African green monkey
EXPERIMENTAL_READOUT: CC50 (µM)

CN(C)C(=O)Nc1cccc(-c2ccc(N(C)C)cc2)c1 : 226
COc1nn(-c2ccc(NC(=O)OCc3ccccc3)c(C)c2)c(=O)o1 : 102

---

- System: HRT18G
- ASSAY: Cytotoxicity, MTT assay, HRT18G
- Type: cell-based, human
EXPERIMENTAL_READOUT: CC50

CN(C)C(=O)Nc1cccc(-c2ccc(N(C)C)cc2)c1 [Atglistatin] : 182 µM
COc1nn(-c2ccc(NC(=O)OCc3ccccc3)c(C)c2)c(=O)o1 [CAY10499] : 104 µM

The origin of these recorded values is paper PMC9575645.
